Values were extracted from patent US20090082203A1.

Documented Percent Growth Inhibition across a set of compounds
Tested on: tobacco budworm (Heliothis virescens [Fabricius])
assay.summary: surface-treated diet test against tobacco budworm
Type: in vivo
settings: 0.25 millimolar on the surface of the diet; second instar larvae; five-day exposure; inhibition of insect weight relative to untreated controls
value.type: Percent Growth Inhibition (%)

compound="[O-][N+]1(Cc2ccc(C3O[C@H]4CCCC[C@H]4O3)cc2)CCC(C(O)(c2ccc(OC(F)(F)F)cc2)c2ccc(OC(F)(F)F)cc2)CC1 (stereo partly drawn) [Compound 117]" value_type="Percent Growth Inhibition" unit_of_measure=% assay_value=100
compound="CC1COC(c2ccc(C[N+]3([O-])CCC(C(O)(c4ccc(Cl)c(Cl)c4)c4ccc(Cl)c(Cl)c4)CC3)cc2)O1 (stereo not drawn) [Compound 177]" value_type="Percent Growth Inhibition" unit_of_measure=% assay_value=100
compound="[O-][N+]1(Cc2ccc(OCC3OCCO3)cc2)CCC(C(O)(c2ccc(OC(F)(F)F)cc2)c2ccc(OC(F)(F)F)cc2)CC1 (stereo not drawn) [Compound 188]" value_type="Percent Growth Inhibition" unit_of_measure=% assay_value=100
